test system: rodent lifetime carcinogenesis bioassay, tumor incidence TD50; assay: carcinogenic potency in animals, long-term in vivo studies, CPDB compilation (AID 1745844); conditions: rat; strain Fischer 344; males; by gavage; site: liver; lesion: one or several types; types not named; dosed 28 weeks; study length 104 weeks
readout-kind: TD50 (mg/kg/day)
API: value field is a number in mg/kg/day; no unit string.

Inquiry: Quick check: TD50 of CN(N=O)C(N)=O ?
Reply text: 11.6

====

test system: rodent lifetime carcinogenesis bioassay, tumor incidence TD50; assay: carcinogenic potency in animals, long-term in vivo studies, CPDB compilation (AID 1745844); settings: rat; strain F344/DuCrj; females; in feed; site: clitoral gland; lesion: adenoma; dosed 112 weeks; study length 112 weeks
readout-kind: TD50 (mg/kg/day)
Record the value in mg/kg/day, omitting the unit from your answer.

Inquiry: Which TD50 value belongs to Cc1nc(N)cc2[nH]c3ccccc3c12 ?
Reply text: 12.8

====

system: rodent lifetime carcinogenesis bioassay, tumor incidence TD50; assay: carcinogenic potency in animals, long-term in vivo studies, CPDB compilation (AID 1745844); details: hamster; strain Syrian Golden; females; in feed; site: forestomach; lesion: papilloma; dosed 101 weeks; study length 101 weeks
Activity calls are given as the source filed them. The rule behind the calls is not given here.
readout-kind: TD50

Inquiry: Query (molecule): O=c1c(O)c(-c2ccc(O)c(O)c2)oc2cc(O)cc(O)c12 ; field requested: TD50
Reply text: 18900 mg/kg/day (inactive)

====

system: rodent lifetime carcinogenesis bioassay, tumor incidence TD50; assay: carcinogenic potency in animals, long-term in vivo studies, CPDB compilation (AID 1745844); conditions: rat; strain Fischer 344; females; inhaled; site: nasal cavity; lesion: adenomatous polyp; dosed 52 weeks; study length 130 weeks
readout-kind: TD50

Inquiry: Which TD50 is listed for NN ?
Reply text: 0.758 mg/kg/day

====

system: rodent lifetime carcinogenesis bioassay, tumor incidence TD50; experiment: carcinogenic potency in animals, long-term in vivo studies, CPDB compilation (AID 1745844); details: rat; strain Osborne-Mendel; females; in feed; site: liver; lesion: hepatocellular adenoma + hepatocellular carcinoma + neoplastic nodule; dosed 80 weeks; study length 111 weeks
readout-kind: TD50 (mg/kg/day)
Your answer should be a plain number; it is taken to be in mg/kg/day.

Inquiry: Can you look up TD50 on rodent lifetime carcinogenesis bioassay, tumor incidence TD50 for ClC1=C(Cl)[C@]2(Cl)[C@H]3[C@H]([C@@H]4C=C[C@H]3C4)[C@@]1(Cl)C2(Cl)Cl ?
Reply text: 466

====

tested on: rodent lifetime carcinogenesis bioassay, tumor incidence TD50; experiment: carcinogenic potency in animals, long-term in vivo studies, CPDB compilation (AID 1745844); conditions: mouse; strain B6C3F1; males; inhaled; site: Harderian gland; lesion: adenoma; dosed 80 weeks; study length 96 weeks
readout-kind: TD50

Inquiry: So what's the measured TD50 for this one? C=CC(=C)C
Reply text: 711 mg/kg/day

====

Quick reference for TD50 among some compounds
tested on: rodent lifetime carcinogenesis bioassay, tumor incidence TD50; test: carcinogenic potency in animals, long-term in vivo studies, CPDB compilation (AID 1745844); settings: mouse; strain C3HeB/FeJ; females; in feed; site: any site (literature study); lesion: malignant tumor; dosed 104 weeks; study length 104 weeks
Activity calls are given as the source filed them. How the calls were made is not given here.

CCN(Cc1cccc(S(=O)(=O)O)c1)c1ccc(C(=C2C=CC(=[N+](CC)Cc3cccc(S(=O)(=O)[O-])c3)C=C2)c2ccc(S(=O)(=O)O)cc2)cc1 : 152000 mg/kg/day (inactive)

--- query ---
Inquiry: // query TD50 value for entry CCN(Cc1cccc(S(=O)(=O)O)c1)c1ccc(C(=C2C=CC(=[N+](CC)Cc3cccc(S(=O)(=O)[O-])c3)C=C2)c2ccccc2)cc1
Reply text: 18400 mg/kg/day (inactive)

====

system: rodent lifetime carcinogenesis bioassay, tumor incidence TD50; test: carcinogenic potency in animals, long-term in vivo studies, CPDB compilation (AID 1745844); settings: mouse; strain ICI; males; by gavage; site: kidney; lesion: several types; types named in the paper; dosed 80 weeks; study length 96 weeks
readout-kind: TD50

Inquiry: What does the data say about its TD50? Entry: ClC(Cl)Cl
Reply text: 139 mg/kg/day

====

Measured TD50 by item
test system: rodent lifetime carcinogenesis bioassay, tumor incidence TD50; test: carcinogenic potency in animals, long-term in vivo studies, CPDB compilation (AID 1745844); conditions: mouse; strain B6C3F1; females; inhaled; site: liver; lesion: hepatocellular adenoma + hepatocellular carcinoma; dosed 103 weeks; study length 104 weeks

Inquiry: Quick check: TD50 of ClC(Cl)=C(Cl)Cl ?
Reply text: 188 mg/kg/day

Inquiry: Which TD50 is reported for this compound? CCc1ccccc1
Reply text: 1880 mg/kg/day

====

system: rodent lifetime carcinogenesis bioassay, tumor incidence TD50; test: carcinogenic potency in animals, long-term in vivo studies, CPDB compilation (AID 1745844); details: mouse; strain B6C3F1; females; by gavage; site: liver; lesion: hepatocellular adenoma + hepatocellular carcinoma + neoplastic nodule; dosed 78 weeks; study length 90 weeks
Here the recorded TD50 is given for each entry.
Give just the number in mg/kg/day; leave the unit off.

Reference set (3 entries):
ClC(Cl)(Cl)C(Cl)(Cl)Cl : 873
ClC=C(Cl)Cl : 1930
ClCC(Cl)Cl : 47.6

Inquiry: Consider the molecule ClC(Cl)=C(Cl)Cl and give its measured TD50.
Reply text: 75.6

====

system: rodent lifetime carcinogenesis bioassay, tumor incidence TD50; experiment: carcinogenic potency in animals, long-term in vivo studies, CPDB compilation (AID 1745844); conditions: rat; strain F344/DuCrj; females; in drinking water; site: brain; lesion: several types; types named in the paper; dosed 103 weeks; study length 111 weeks
readout-kind: TD50

Inquiry: Returns the measured TD50 for the input molecule. Input: CCN(N=O)C(N)=O
Reply text: 0.904 mg/kg/day

====

test system: rodent lifetime carcinogenesis bioassay, tumor incidence TD50; assay: carcinogenic potency in animals, long-term in vivo studies, CPDB compilation (AID 1745844); details: mouse; strain B6C3F1; males; in feed; site: kidney; lesion: renal-cell adenoma; dosed 104 weeks; study length 104 weeks
readout-kind: TD50 (mg/kg/day)
The response must be a number in mg/kg/day with no trailing unit.

Inquiry: Returns the measured TD50 for the input compound. Input: [CH3][Hg][Cl]
Reply text: 9.83

====

test system: rodent lifetime carcinogenesis bioassay, tumor incidence TD50; assay: carcinogenic potency in animals, long-term in vivo studies, CPDB compilation (AID 1745844); conditions: mouse; strain Swiss albino; males; in drinking water; site: subcutaneous tissue; lesion: fibrosarcoma; dosed 97 weeks; study length 102 weeks
The source made the active and inactive calls. The rule behind the calls is not given here.
readout-kind: TD50

Inquiry: Reported TD50, compound CN(N)C=O : ____
Reply text: 2.6 mg/kg/day (inactive)

====

system: rodent lifetime carcinogenesis bioassay, tumor incidence TD50; assay: carcinogenic potency in animals, long-term in vivo studies, CPDB compilation (AID 1745844); conditions: hamster; strain Syrian Golden; both sexes; by gavage; site: nasal cavity, posterior region; lesion: adenocarcinoma; dosed 53 weeks; study length 59 weeks
readout-kind: TD50

Inquiry: Quick check: TD50 of C=CCN(CC=C)N=O ?
Reply text: 2.86 mg/kg/day

====

tested on: rodent lifetime carcinogenesis bioassay, tumor incidence TD50; test: carcinogenic potency in animals, long-term in vivo studies, CPDB compilation (AID 1745844); details: rat; strain Fischer 344; females; by gavage; site: pancreatic islets; lesion: islet-cell adenoma + islet-cell carcinoma; dosed 106 weeks; study length 108 weeks
readout-kind: TD50 (mg/kg/day)
Numbers only; they are read as mg/kg/day.

Inquiry: Please provide the recorded TD50 for Cc1ccc(N=C=O)cc1N=C=O , tested on rodent lifetime carcinogenesis bioassay, tumor incidence TD50.
Reply text: 115

====

system: rodent lifetime carcinogenesis bioassay, tumor incidence TD50; experiment: carcinogenic potency in animals, long-term in vivo studies, CPDB compilation (AID 1745844); conditions: rat; strain ACI/n; males; in feed; site: colon; lesion: adenocarcinoma; dosed 68 weeks; study length 68 weeks
readout-kind: TD50

Inquiry: What value of measured TD50 is listed for O=C1c2ccccc2C(=O)c2c(O)cccc21 ?
Reply text: 246 mg/kg/day

====

test system: rodent lifetime carcinogenesis bioassay, tumor incidence TD50; assay: carcinogenic potency in animals, long-term in vivo studies, CPDB compilation (AID 1745844); conditions: mouse; strain C57BL; males; by gavage; site: lung; lesion: several types; types named in the paper; dosed 80 weeks; study length 104 weeks
Active and inactive are the calls of the source. How the calls were made is not given here.
readout-kind: TD50

Inquiry: What value of TD50 on rodent lifetime carcinogenesis bioassay, tumor incidence TD50 does ClC(Cl)Cl have?
Reply text: 728 mg/kg/day (inactive)

====

test system: rodent lifetime carcinogenesis bioassay, tumor incidence TD50; test: carcinogenic potency in animals, long-term in vivo studies, CPDB compilation (AID 1745844); conditions: rat; strain Fischer 344; females; in drinking water; site: skin; lesion: squamous-cell carcinoma + squamous-cell papilloma; dosed 60 weeks; study length 60 weeks
readout-kind: TD50

Inquiry: Which TD50 is reported for this molecule? Cc1cc(-c2ccc(N)c(C)c2)ccc1N
Reply text: 3.17 mg/kg/day
